Examples of compounds with documented kcat follow.
- Tested on: Pyrococcus furiosus serine protease (carboxypeptidase/endopeptidase), native, about 81 kDa, N-terminus SEQ ID NO: 1
- protocol: Kinetic studies and substrate specificity (hydrolysis of synthetic peptide and ester substrates; progress curves, Hanes plot)
- Type: biochemical
- protocol_conditions: 25.0° C., 0.025 M Na phosphate, pH 7.0; mean of at least 4 experiments (PPANA: initial velocities, Hanes equation)
measured_metric: kcat (s⁻¹)

compound=O=C(O)CNC(=O)CNC(=O)[C@H](Cc1ccccc1)NC(=O)/C=C/c1ccco1 endpoint_result=10.64
compound=O=C(/C=C/c1ccco1)N[C@@H](Cc1ccccc1)C(=O)N[C@@H](Cc1ccccc1)C(=O)O endpoint_result=4.58
compound="C[C@H](NC(=O)/C=C/c1ccco1)C(=O)N[C@@H](Cc1ccccc1)C(N)=O [FAAPA, furyl-acryloyl-ala-phe-amide]" endpoint_result=7.31

These entries and their values trace back to patent US6743618B2.
